Test protocol: Lipophilicity, log D of the compound by shake flask method
Assay type: physicochemical
Stated conditions: octanol/water
Quantity kind: logD

Structure notation: O=C(N1CCC(c2ccccc2)CC1)N(c1ncccc1Cl)[C@@H]1CCCNC1
logD: 0.9
//
Structure notation: COc1ccc(CCC(=O)N(c2nccc3ccccc23)[C@@H]2CCCNC2)cc1
logD: 1

P = O=C(N1CCN(c2ccccc2)CC1)N(c1nccc2ccccc12)[C@@H]1CCCNC1
Q = O=C(N1CCC(c2cnn3cccnc23)CC1)N(c1ncccc1Cl)[C@@H]1CCCNC1
Req: Sorting by logD in descending order, would P or Q appear first? Answer by stating the label of the chosen item.
Resp: P

The origin of these recorded values is ChEMBL document CHEMBL4325911.
